target: P300 (Homo sapiens); test: Immunoblotting of P300 protein levels in LNCaP or 22RV1 cells; type: cell-based; parameters: LNCaP or 22RV1 cells that express CBP/P300 proteins were treated with GNE-781 or the bivalent compounds; endogenous in cells; host or cells: LNCaP (clone FGC) or 22RV1 cells; conditions: percentage of inhibition of p300 at 10 nM (Table 2); read-out: Degradation (10 nM)
assay-endpoint: inhibition at 0.01 µM

Some entries whose results are on file:
CNC(=O)N1CCc2c(c(N3CCCc4cc(-c5cnn(CC(=O)NCCCCCCCCNc6ccc7c(c6)C(=O)N(C6CCC(=O)NC6=O)C7=O)c5)c(C(F)F)cc43)nn2C2CCOCC2)C1 (stereo not shown) :: > 80%
CNC(=O)N1CCc2c(c(N3CCCc4cc(-c5cnn(C)c5)c(C(F)F)cc43)nn2C2CCN(C(=O)CCOCCOCCNc3ccc4c(c3)C(=O)N(C3CCC(=O)NC3=O)C4=O)CC2)C1 (stereo not shown) :: 20 to 50%
CNC(=O)N1CCc2c(c(N3CCCc4cc(-c5cnn(CC(=O)NCCOCCOCCNc6cccc7c6C(=O)N(C6CCC(=O)NC6=O)C7=O)c5)c(C(F)F)cc43)nn2C2CCOCC2)C1 (stereo not shown) :: < 20%

Sample CNC(=O)N1CCc2c(c(N3CCCc4cc(-c5cnn(CC(=O)NCCCCCNc6ccc7c(c6)C(=O)N(C6CCC(=O)NC6=O)C7=O)c5)c(C(F)F)cc43)nn2C2CCOCC2)C1 (stereo not shown) ; inhibition at 0.01 µM observed: 50 to 80%

---

target: P300 (Homo sapiens, UniProt Q09472); experiment: Immunoblotting of P300 protein levels in LNCaP or 22RV1 cells; type: cell-based; parameters: LNCaP or 22RV1 cells that express CBP/P300 proteins were treated with GNE-781 or the bivalent compounds; endogenous in cells; host or cells: LNCaP (clone FGC) or 22RV1 cells; details: percentage of inhibition of p300 at 10 nM (Table 3); read-out: Degradation (10 nM)
Sequence (Q09472 whole entry): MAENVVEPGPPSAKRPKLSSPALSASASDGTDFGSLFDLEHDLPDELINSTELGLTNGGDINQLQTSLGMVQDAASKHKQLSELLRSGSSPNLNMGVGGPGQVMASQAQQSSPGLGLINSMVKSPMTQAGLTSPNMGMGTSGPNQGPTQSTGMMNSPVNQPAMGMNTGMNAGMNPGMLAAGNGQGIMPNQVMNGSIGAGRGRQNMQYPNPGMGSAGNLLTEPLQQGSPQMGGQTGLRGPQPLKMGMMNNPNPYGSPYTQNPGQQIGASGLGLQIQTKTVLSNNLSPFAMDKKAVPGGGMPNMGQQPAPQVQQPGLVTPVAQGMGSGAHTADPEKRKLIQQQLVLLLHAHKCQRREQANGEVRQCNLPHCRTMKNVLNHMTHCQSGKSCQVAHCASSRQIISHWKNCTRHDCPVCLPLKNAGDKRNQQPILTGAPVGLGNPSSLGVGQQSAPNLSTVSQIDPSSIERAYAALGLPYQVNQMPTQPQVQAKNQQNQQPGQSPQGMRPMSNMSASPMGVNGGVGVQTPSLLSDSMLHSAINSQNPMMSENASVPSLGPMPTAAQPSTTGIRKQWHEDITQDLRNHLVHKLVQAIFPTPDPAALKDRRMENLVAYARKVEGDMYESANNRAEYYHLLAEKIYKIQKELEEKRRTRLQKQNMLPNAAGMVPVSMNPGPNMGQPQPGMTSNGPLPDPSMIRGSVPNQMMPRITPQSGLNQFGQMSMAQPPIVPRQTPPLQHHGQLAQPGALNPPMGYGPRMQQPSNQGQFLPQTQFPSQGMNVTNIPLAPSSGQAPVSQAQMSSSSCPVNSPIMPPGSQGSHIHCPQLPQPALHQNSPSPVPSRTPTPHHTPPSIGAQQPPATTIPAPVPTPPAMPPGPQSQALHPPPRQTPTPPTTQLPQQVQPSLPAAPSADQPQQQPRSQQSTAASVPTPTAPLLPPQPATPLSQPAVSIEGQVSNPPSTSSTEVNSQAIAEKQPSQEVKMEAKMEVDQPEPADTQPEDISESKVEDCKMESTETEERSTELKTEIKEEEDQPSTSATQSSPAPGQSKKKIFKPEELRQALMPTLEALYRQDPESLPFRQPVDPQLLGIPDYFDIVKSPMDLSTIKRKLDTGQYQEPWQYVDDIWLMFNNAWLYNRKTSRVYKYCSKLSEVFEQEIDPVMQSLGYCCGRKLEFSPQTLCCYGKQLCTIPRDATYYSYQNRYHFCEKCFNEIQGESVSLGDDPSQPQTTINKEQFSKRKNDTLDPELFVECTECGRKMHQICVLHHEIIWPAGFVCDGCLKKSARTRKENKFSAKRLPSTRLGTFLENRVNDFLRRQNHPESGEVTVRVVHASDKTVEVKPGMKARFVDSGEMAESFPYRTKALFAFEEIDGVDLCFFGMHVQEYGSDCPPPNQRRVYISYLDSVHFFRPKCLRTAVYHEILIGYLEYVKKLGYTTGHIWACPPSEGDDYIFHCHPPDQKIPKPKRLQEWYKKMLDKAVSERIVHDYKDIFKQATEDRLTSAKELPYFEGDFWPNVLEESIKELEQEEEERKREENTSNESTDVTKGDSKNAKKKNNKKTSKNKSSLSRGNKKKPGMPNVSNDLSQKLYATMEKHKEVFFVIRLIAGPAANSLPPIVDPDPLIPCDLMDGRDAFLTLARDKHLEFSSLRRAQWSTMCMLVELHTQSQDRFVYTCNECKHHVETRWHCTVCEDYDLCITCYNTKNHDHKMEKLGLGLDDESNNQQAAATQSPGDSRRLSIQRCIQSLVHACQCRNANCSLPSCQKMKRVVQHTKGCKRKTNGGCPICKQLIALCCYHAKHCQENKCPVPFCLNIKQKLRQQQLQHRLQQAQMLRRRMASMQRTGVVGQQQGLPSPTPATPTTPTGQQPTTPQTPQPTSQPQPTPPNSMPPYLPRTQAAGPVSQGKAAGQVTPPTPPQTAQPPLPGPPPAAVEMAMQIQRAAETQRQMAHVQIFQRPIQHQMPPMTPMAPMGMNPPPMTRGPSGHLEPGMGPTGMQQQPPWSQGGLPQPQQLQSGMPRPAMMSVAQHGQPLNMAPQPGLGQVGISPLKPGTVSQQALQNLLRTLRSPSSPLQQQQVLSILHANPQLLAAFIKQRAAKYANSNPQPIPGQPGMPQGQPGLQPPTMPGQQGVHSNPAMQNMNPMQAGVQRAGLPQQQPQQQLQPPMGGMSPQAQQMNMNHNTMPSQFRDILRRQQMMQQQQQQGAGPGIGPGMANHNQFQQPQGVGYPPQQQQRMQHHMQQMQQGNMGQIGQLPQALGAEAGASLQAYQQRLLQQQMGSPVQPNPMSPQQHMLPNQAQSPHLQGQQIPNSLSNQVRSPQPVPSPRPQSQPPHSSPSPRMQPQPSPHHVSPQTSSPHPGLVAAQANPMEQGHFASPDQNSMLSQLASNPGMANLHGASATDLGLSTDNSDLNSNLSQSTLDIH
assay-endpoint: inhibition at 0.01 µM

CC(=O)N1CCc2c(c(N3CCCc4cc(-c5cnn(C)c5)c(C(F)F)cc43)nn2C2CCN(C(=O)CN3CCC(COc4cccc5c4C(=O)N(C4CCC(=O)NC4=O)C5=O)CC3)CC2)C1 (stereo not drawn) [P-168] :: < 20%
CNC(=O)N1CCc2c(c(N3CCCc4cc(-c5cnn(C)c5)c(C(F)F)cc43)nn2C2CCN(C(=O)CCCCCCCCC(=O)N[C@H](C(=O)N3C[C@H](O)C[C@H]3C(=O)NCc3ccc(-c4scnc4C)cc3)C(C)(C)C)CC2)C1 [P-062] :: 20 to 50%
CC(=O)N1CCc2c(c(N3CCCc4cc(-c5cnn(C)c5)c(C(F)F)cc43)nn2C2CCN(C(=O)CCCCCCCCCn3c(=O)n(C4CCC(=O)NC4=O)c4ccccc43)CC2)C1 (stereo not drawn) [P-164] :: > 80%

Sample CNC(=O)N1CCc2c(c(N3CCCc4cc(-c5cnn(C)c5)c(C(F)F)cc43)nn2C2CCN(C(=O)CCCC(=O)N[C@H](C(=O)N3C[C@H](O)C[C@H]3C(=O)NCc3ccc(-c4scnc4C)cc3)C(C)(C)C)CC2)C1 [P-057] ; inhibition at 0.01 µM observed: < 20%

Sample CNC(=O)N1CCc2c(c(N3CCCc4cc(-c5cnn(C)c5)c(C(F)F)cc43)nn2C2CCN(C(=O)CCOCCOCCOCCOCCC(=O)N[C@H](C(=O)N3C[C@H](O)C[C@H]3C(=O)NCc3ccc(-c4scnc4C)cc3)C(C)(C)C)CC2)C1 [P-070] ; inhibition at 0.01 µM observed: < 20%

Sample CNC(=O)N1CCc2c(c(N3CCCc4cc(-c5cnn(C)c5)c(C(F)F)cc43)nn2C2CCN(C(=O)CCCCCNc3cccc4c3n(C)c(=O)n4C3CCC(=O)NC3=O)CC2)C1 (stereo not drawn) [P-109] ; inhibition at 0.01 µM observed: > 80%
